Taken from patent US9862730B2.

- SYSTEM_NAME: PAR4 (Homo sapiens (Human))
- Sequence (Q96RI0 18-385): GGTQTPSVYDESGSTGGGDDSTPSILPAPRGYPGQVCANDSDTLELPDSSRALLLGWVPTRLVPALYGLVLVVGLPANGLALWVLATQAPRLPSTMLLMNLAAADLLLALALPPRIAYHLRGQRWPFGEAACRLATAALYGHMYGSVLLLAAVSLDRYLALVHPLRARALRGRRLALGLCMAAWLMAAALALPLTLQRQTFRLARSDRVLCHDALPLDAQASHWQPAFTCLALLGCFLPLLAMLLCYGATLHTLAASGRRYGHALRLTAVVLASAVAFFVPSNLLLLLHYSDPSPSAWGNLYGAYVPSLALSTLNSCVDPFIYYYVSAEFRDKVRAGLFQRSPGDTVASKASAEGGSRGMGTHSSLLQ
- TEST_NAME: FLIPR assay in PAR4-expressing HEK293 cells (PAR4 antagonist activity, calcium mobilization)
- Assay type: cell-based
- RUN_CONDITIONS: FLIPR assay as described in Example A
pIC50: −log10 of the molar value.
REPORTED_METRIC: pIC50

Study these solved cases before continuing.
CCc1nn2cc(-c3nc4ccc(OCc5ccncc5)cc4o3)nc2s1 [Example 86]; 5.92
COc1cc(OCc2cccc(OCc3ccccc3CCc3ccccc3)c2)c2cc(-c3cn4nc(OC)sc4n3)oc2c1 [Example 364]; 7.98
CCc1nn2cc(-c3nc4cc(F)ccc4o3)nc2s1 [Example 49]; 6.44
COc1ccc2nc(-c3cn4nc(SC)sc4n3)oc2c1 [Example 116]; 8.18
COc1nn2cc(-c3cc4ccc(OC)c(OC)c4o3)nc2s1 [Example 10]; 5.74
CCc1nn2cc(-c3nc4ccc(OCc5ccc(OC)cc5)cc4o3)nc2s1 [Example 84]; 6.99

(I) COc1nn2cc(-c3cc4c(C(F)(F)F)cc(C)nc4o3)nc2s1 [Example 305]
(II) CC(F)(F)c1nn2cc(-c3cc4ccc(Cl)cc4o3)nc2s1 [Example 237]
Exercise: // which entry reports the smaller pIC50, I or II ? Response format: the label of the selected entry.
Key: II

(I) CSc1nn2cc(-c3nc4c(OC[C@@H]5CCCN5C(=O)[C@H](NC(=O)c5cccs5)c5ccccc5)cccc4o3)nc2s1 [Example 338]
(II) COc1cc(OC)c2cc(-c3cn4nc(Br)sc4n3)oc2c1 [Example 294]
(III) CC(F)(F)c1nn2cc(-c3cc4c(Cl)cc(Cl)cc4o3)nc2s1 [Example 238]
(IV) CSc1nn2cc(-c3nc4ccc(OCc5ccccc5Cl)cc4o3)nc2s1 [Example 151]
(V) COc1cc(OC[C@@H]2CCCN2C(=O)OC(C)(C)C)c2cc(-c3cn4nc(OC)sc4n3)oc2c1 [Example 342-343]
Exercise: Highest pIC50 first, then in falling order down to the smallest. Reply format: the labels, ordered as requested.
Key: II, III, V, IV, I
